# maps each entry to its intact peptide remaining after 2 h with 6.25 ug/mL Sap9
- System Under Test: purified recombinant Sap9 (C. albicans secreted aspartic protease 9) (Candida albicans)
- Measurement Protocol: cell-based or functional assay

In the examples that follow, each entry is paired with its recorded intact peptide remaining after 2 h with 6.25 ug/mL Sap9.
[[record]]
binder = "DSHAKRHHGYKRKFHERHHSHRGY [Hst-5 synthetic peptide K17R]"
reported = "> 60%"

[[record]]
binder = "DSHAKRHHGYKRKFHELHHSHRGY [Hst-5 synthetic peptide K17L]"
reported = "> 60%"

[[record]]
binder = "DSHAKRHHGYRRKFHEKHHSHRGY [Hst-5 synthetic peptide K11R]"
reported = "20%"


Now look at this one.
Lookup: Complete the entry with intact peptide remaining after 2 h with 6.25 ug/mL Sap9 for DSHARRHHGYKRKFHEKHHSHRGY [Hst-5 synthetic peptide K5R]
Found: 4.5%
